Molecular target: human 5-LO (Homo sapiens)
Construct: Human peripheral blood […] (PMNs) were isolated through a Ficoll-Paque density gradient; endogenous in cells; host or cells: human peripheral blood mononuclear cells (PBML/PMNs)
Sequence (P09917 whole entry): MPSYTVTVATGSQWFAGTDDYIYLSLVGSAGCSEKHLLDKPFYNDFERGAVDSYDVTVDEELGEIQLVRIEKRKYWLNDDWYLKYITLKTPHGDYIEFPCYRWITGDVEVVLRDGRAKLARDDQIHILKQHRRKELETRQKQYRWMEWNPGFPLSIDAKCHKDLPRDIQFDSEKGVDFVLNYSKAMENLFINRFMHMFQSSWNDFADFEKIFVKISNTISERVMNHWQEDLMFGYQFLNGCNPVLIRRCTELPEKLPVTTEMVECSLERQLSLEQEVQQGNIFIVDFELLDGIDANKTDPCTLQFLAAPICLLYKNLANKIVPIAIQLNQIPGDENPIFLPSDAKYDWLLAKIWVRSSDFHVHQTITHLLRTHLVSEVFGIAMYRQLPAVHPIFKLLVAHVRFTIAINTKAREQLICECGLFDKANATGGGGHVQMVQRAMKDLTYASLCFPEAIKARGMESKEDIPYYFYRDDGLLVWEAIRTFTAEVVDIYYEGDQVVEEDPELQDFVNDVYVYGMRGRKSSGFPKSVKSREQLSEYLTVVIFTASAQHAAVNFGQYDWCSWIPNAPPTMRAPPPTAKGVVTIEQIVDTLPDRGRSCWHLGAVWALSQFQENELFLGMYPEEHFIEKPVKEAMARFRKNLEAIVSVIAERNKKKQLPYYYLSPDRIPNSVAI
Assay: 5-LO inhibition assay (EIA quantitation of LTB4)
Format: biochemical
Conditions: 4 μM compound, 1% DMSO; read-out: Percentage of inhibition or binding activity, 5-LO (4 μM)
Exercise: state measured inhibition at 4 µM for each of the compounds provided.
Numbers only, in %.

INPUT: Need inhibition at 4 µM, item `CC(C)=CCC/C(C)=C/CC/C(C)=C/CN1C(=O)c2cccc(O)c2N(C)c2c(O)cc(O)cc21`
OUTPUT: 93

INPUT: Need inhibition at 4 µM, item `CC(=O)Oc1cc(OC(C)=O)c2c(c1)N(CC=C(C)CCC=C(C)CCC=C(C)C)C(=O)c1cccc(OC(C)=O)c1N2`
OUTPUT: 86

INPUT: Need inhibition at 4 µM, item `CC(=O)Oc1cc(O)c2c(c1)N(CC=C(C)CCC=C(C)CCC=C(C)C)C(=O)c1cccc(OC(C)=O)c1N2`
OUTPUT: 97

Now for a further compound.
INPUT: Need inhibition at 4 µM, item `COc1cc(OC)c2c(c1)N(C/C=C(\C)CC/C=C(\C)CCC=C(C)C)C(=O)c1cccc(O)c1N2`
OUTPUT: 71

* * *

Tested on: brain tumor cell lines
Test: MTT cytotoxicity, panel of brain tumor cell lines (summary)
Assay type: cell-based
Details: 96 hours; read-out: IC50 values against brain tumor cell lines, range
Procedure: The cytotoxic activity of Compound 1 was further evaluated using a panel of brain tumor cell lines. This study was performed in collaboration with INSERM (Grenoble, France). Tumor cells (5,000 to 10,000 cells per well depending on their doubling time) were plated in 96-well flat-bottom plates and incubated for 24 hours before treatment. […] The in vitro cytotoxic activity was determined by a standard MTT assay.
pIC50: −log10 of the molar value.
measuredProperty: pIC50

INPUT: Need pIC50, item `CC(C)=CCC/C(C)=C/CC/C(C)=C/CN1C(=O)c2cccc(O)c2Nc2c(O)cc(O)cc21`
OUTPUT: 5.05 to 5.80

* * *

Target: peripheral benzodiazepine receptor (PBR) (Rattus norvegicus)
Construct: CBR and PBR were obtained from rat brain and heart membrane-fractions, respectively
Assay: In-house PBR binding assay ([3H]PK11195, rat heart mitochondrial membranes)
measuredProperty: pEC50
Give bare numbers, as −log10 of the molar value.

INPUT: Report pEC50 for CC(C)=CCC/C(C)=C/CC/C(C)=C/CN1C(=O)c2cccc(O)c2Nc2c(O)cc(O)cc21 [Compound 1] tested on peripheral benzodiazepine receptor (PBR) (Rattus norvegicus).
OUTPUT: 5.55

* * *

Target: Leukotriene, Cysteinyl (CysLT1) receptor (Homo sapiens)
Construct: expressed in transfected cells; host or cells: CHO-K1 cells
Sequence (Q9Y271 whole entry): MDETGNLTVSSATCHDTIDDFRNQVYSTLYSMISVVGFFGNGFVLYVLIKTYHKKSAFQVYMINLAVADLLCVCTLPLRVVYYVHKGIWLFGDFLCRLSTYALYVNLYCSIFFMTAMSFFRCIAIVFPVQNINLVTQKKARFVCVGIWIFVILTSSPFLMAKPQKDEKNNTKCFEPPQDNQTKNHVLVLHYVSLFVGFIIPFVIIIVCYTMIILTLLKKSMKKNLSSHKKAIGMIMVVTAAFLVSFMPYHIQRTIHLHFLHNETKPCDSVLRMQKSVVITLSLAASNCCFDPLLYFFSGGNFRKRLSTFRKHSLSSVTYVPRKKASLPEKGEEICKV
Experiment: CysLT1 radioligand binding assay
Conditions: 4 μM compound, 1% DMSO; read-out: Percentage of inhibition or binding activity, CysLT1 (4 μM)
The label depends only on inhibition at 4 µM: fulfilled if it is at least 70%, not fulfilled if it is smaller.

// known answers, use as guide
INPUT: Tell me whether inhibition at 4 µM is at least 70% here: `CC(C)=CCC/C(C)=C/CC/C(C)=C/CN1C(=O)c2cccc(O)c2N(C)c2c(O)cc(O)cc21`
OUTPUT: fulfilled

INPUT: Tell me whether inhibition at 4 µM is at least 70% here: `CC(=O)Oc1cc(OC(C)=O)c2c(c1)N(CC=C(C)CCC=C(C)CCC=C(C)C)C(=O)c1cccc(OC(C)=O)c1N2`
OUTPUT: not fulfilled

INPUT: Tell me whether inhibition at 4 µM is at least 70% here: `COc1cc(OC)c2c(c1)N(C/C=C(\C)CC/C=C(\C)CCC=C(C)C)C(=O)c1cccc(O)c1N2`
OUTPUT: not fulfilled

INPUT: Tell me whether inhibition at 4 µM is at least 70% here: `COc1cc(OC)c2c(c1)N(CC=C(C)CCC=C(C)CCC=C(C)C)C(=O)c1cccc(OC)c1N2`
OUTPUT: not fulfilled

INPUT: Tell me whether inhibition at 4 µM is at least 70% here: `COc1cccc2c1Nc1c(O)cc(O)cc1N(C/C=C(\C)CC/C=C(\C)CCC=C(C)C)C2=O`
OUTPUT: not fulfilled

--- query ---
INPUT: Tell me whether inhibition at 4 µM is at least 70% here: `CC(=O)Oc1cc(O)c2c(c1)N(CC=C(C)CCC=C(C)CCC=C(C)C)C(=O)c1cccc(OC(C)=O)c1N2`
OUTPUT: fulfilled
